System: CAL-120, human breast adenocarcinoma cells
Procedure summary: Proliferation assay CAL-120 (crystal violet, 4 days)
Assay type: cell-based
Condition label: Homo sapiens, CAL-120, 96 h, CAL-120 cells, median, read-out: Prolif-CAL-120, IC50-[mol/l] (median)
Measurement name: IC50 (nM)

Known IC50 results, listed for orientation:
[[record]]
compound = "Brc1cnn2c(NCc3nc4ccccc4[nH]3)nc(N3C[C@H]4CCCN[C@H]4C3)nc12 [Example 199]"
result_units = "nM"
recorded_number = 15.4

[[record]]
compound = "Fc1cccc2[nH]c(CNc3nc(N4CC5CCC(C4)N5)nc4c(Cl)cnn34)nc12 [Example 363]"
result_units = "nM"
recorded_number = 7.26

[[record]]
compound = "FC(F)(F)Oc1cccc(-c2cnc(CNc3nc(N4CCOCC4)nc4c(Br)cnn34)[nH]2)c1 [Example 82]"
result_units = "nM"
recorded_number = 85.2

[[record]]
compound = "FC(F)(F)c1cccc(-c2cnc(CNc3nc(N4CCOCC4)nc4c(Br)cnn34)[nH]2)c1 [Example 83]"
result_units = "nM"
recorded_number = 12.1

[[record]]
compound = "C[C@@H]1CN(c2nc(NCc3nc4ccccc4[nH]3)n3ncc(C4CC4)c3n2)C[C@H](C)N1 [Example 248]"
result_units = "nM"
recorded_number = 3.13


(A) Cc1cc2nc(CNc3nc(N4CCN(C)CC4)nc4c(C5CC5)cnn34)[nH]c2cc1C [Example 312]
(B) Cc1cnn2c(NCc3nc4ccccc4[nH]3)nc(N3CCOCC3)nc12 [Example 393]
(C) Brc1cnn2c(NCc3ncc(-c4ccccn4)[nH]3)nc(N3CCOCC3)nc12 [Example 90]
I would appreciate it if you could sort these 3 compounds by IC50, starting from the smallest number. Returns: the labels arranged in the requested order.
A, C, B

(A) Fc1ccc2[nH]c(CNc3nc(N4CCOCC4)nc4c(C5CC5)cnn34)nc2c1 [Example 181]
(B) Fc1ccc2[nH]c(CNc3nc(N4CCOCC4)nc4c(Br)cnn34)nc2c1F [Example 25]
Between A and B , whose measured IC50 reads higher? The response must carry the label of the picked entry.
A

(a) Cc1ccc2[nH]c(CNc3nc(N4CCN(C)CC4)nc4c(C5CC5)cnn34)nc2c1 [Example 210]
(b) COC1CCN(c2nc(NCc3nc4ccccc4[nH]3)n3ncc(Br)c3n2)CC1 [Example 62]
Problem: Given the entries a and b , determine which has the lower reported IC50. The response must carry the label of the picked entry.
a
(a: 4.66 nM, b: 32.5 nM)

Origin of values: patent US20230117034A1
